# assayed_system: T1, TNFR1 (Homo sapiens, UniProt P19438)
# T1 chain: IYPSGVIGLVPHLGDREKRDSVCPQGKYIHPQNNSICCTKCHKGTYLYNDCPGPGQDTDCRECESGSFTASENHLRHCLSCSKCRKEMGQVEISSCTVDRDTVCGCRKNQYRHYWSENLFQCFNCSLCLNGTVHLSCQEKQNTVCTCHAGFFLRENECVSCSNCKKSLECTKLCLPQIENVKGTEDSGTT
# assay_comment: yeast display SC50
readout_label: apparent Kd (screen) (nM)

K23W (designed binder) SMEEEVEKAAKEYEKKKKEAIEWHLEKLKAKDKEAAERFLKELEEAAKEYAKDEAKTMSEEEAKRRAKKYKEKVLLSELSEEEQKEIKEAEEKLVRTILKYVEEAAK ... 0.956

A: Q84H (designed binder) SMEEEVEKAAKEYEKKKKEAIEKHLEKLKAKDKEAAERFLKELEEAAKEYAKDEAKTMSEEEAKRRAKKYKEKVLLSELSEEEHKEIKEAEEKLVRTILKYVEEAAK
B: L28M (designed binder) SMEEEVEKAAKEYEKKKKEAIEKHLEKMKAKDKEAAERFLKELEEAAKEYAKDEAKTMSEEEAKRRAKKYKEKVLLSELSEEEQKEIKEAEEKLVRTILKYVEEAAK
stdin: Given A and given B , which shows the smaller recorded apparent Kd (screen)? Write the label of whichever entry you select.
stdout: B
(B: 0.956 nM, A: 3.3 nM)
